Sourced from patent US11040028B2

Measured IC50 by item
Test system: human lung fibroblasts HFL1
Assay: Anti-fibrosis activity test: inhibition of proliferation of human lung fibroblasts HFL1 (CCK-8)
Format: cell-based
Conditions: Homo sapiens, HFL1, 48 h, HFL1 cells, 48 h, CCK-8

>  <Compound>
Cc1ccc2nc3c(c(O)c2c1)C(=O)n1cccc1-3 [Compound 696b]

>  <IC50>
0.05 to 5 mM

$$$$
>  <Compound>
Cc1cc(C)c2c(=O)c3c([nH]c2c1)-c1cccn1C3=O [Compound 768a]

>  <IC50>
0.05 to 5 mM

$$$$
>  <Compound>
Cc1cccc2nc3c(c(O)c12)C(=O)n1cccc1-3 [Compound 678b]

>  <IC50>
0.05 to 5 mM

$$$$
>  <Compound>
O=C1c2c(c(=O)c3ccccc3n2CCN2CCCCC2)-c2cccn21 [Compound 784a]

>  <IC50>
0.05 to 5 mM

$$$$
>  <Compound>
O=C1c2nc3ccccc3c(OCCCN3CCCCC3)c2-c2cccn21 [Compound 786b]

>  <IC50>
0.05 to 5 mM

$$$$
>  <Compound>
O=C1c2c(c(=O)c3ccccc3n2CCCCN2CCOCC2)-c2cccn21 [Compound 789a]

>  <IC50>
0.05 to 5 mM

$$$$
>  <Compound>
Cc1ccc2c(O)c3c(nc2c1)-c1cccn1C3=O [Compound 714b]

>  <IC50>
0.05 to 5 mM

$$$$
>  <Compound>
Cc1ccc2c(O)c3c(nc2c1)C(=O)n1cccc1-3 [Compound 778b]

>  <IC50>
0.05 to 5 mM

$$$$
>  <Compound>
Cc1cc(C)c2nc3c(c(O)c2c1)C(=O)n1cccc1-3 [Compound 750b]

>  <IC50>
0.05 to 5 mM

$$$$
>  <Compound>
O=C1c2c(n(Cc3ccccc3[N+](=O)[O-])c3ccccc3c2=O)-c2cccn21 [Compound 668a]

>  <IC50>
0.05 to 5 mM

$$$$
>  <Compound>
CCCOCCn1c2c(c(=O)c3ccccc31)-c1cccn1C2=O [Compound 790a]

>  <IC50>
0.05 to 5 mM

$$$$
>  <Compound>
O=C1c2c(c(=O)c3ccccc3n2CCCN2CCOCC2)-c2cccn21 [Compound 787a]

>  <IC50>
0.05 to 5 mM

$$$$
>  <Compound>
Cc1cc(C)c2[nH]c3c(c(=O)c2c1)C(=O)n1cccc1-3 [Compound 750a]

>  <IC50>
0.05 to 5 mM

$$$$
>  <Compound>
O=C1c2c(n(CCN3CCCCC3)c3ccccc3c2=O)-c2cccn21 [Compound 665a]

>  <IC50>
0.05 to 5 mM

$$$$
>  <Compound>
Cc1ccn2c1-c1c(nc3ccccc3c1O)C2=O [Compound 797b]

>  <IC50>
0.05 to 5 mM

$$$$
>  <Compound>
O=C1c2nc3ccccc3c(OCCN3CCCCC3)c2-c2cccn21 [Compound 784b]

>  <IC50>
0.05 to 5 mM

$$$$
>  <Compound>
O=C1c2c(nc3ccccc3c2OCCCN2CCNCC2)-c2cccn21 [Compound 669b]

>  <IC50>
0.05 to 5 mM

$$$$
>  <Compound>
Cc1cc(C)c2c(O)c3c(nc2c1)C(=O)n1cccc1-3 [Compound 782b]

>  <IC50>
0.05 to 5 mM

$$$$
>  <Compound>
CCOCCCOc1c2c(nc3ccccc13)-c1cccn1C2=O [Compound 672b]

>  <IC50>
0.05 to 5 mM

$$$$

* * *

Test system: BHK-21 cells
Test: Anti-fibrosis activity test: inhibition of BHK-21 cell proliferation (CCK-8)
Assay type: cell-based
Conditions: Mesocricetus auratus, BHK-21, 48 h, CCK-8, 48 hours after administration
Measured IC50 by item

>  <Molecule>
O=C(Oc1c2c(nc3cc(N4CCNCC4)c(F)cc13)-c1cccn1C2=O)c1ccco1 [Compound 343b]

>  <IC50>
0.05 to 5 mM

$$$$
>  <Molecule>
O=C1c2cc(F)ccc2N(c2ccc(Cl)cc2)C2c3cccn3C(=O)C12 (centres unmarked) [Compound 133a]

>  <IC50>
0.05 to 5 mM

$$$$
>  <Molecule>
O=C1c2c(n(Cc3cc(F)ccc3F)c3ccccc3c2=O)-c2cccn21 [Compound 573a]

>  <IC50>
0.05 to 5 mM

$$$$
>  <Molecule>
O=C1c2c(nc3ccccc3c2OCCN2CCOCC2)-c2cccn21 [Compound 662b]

>  <IC50>
0.05 to 5 mM

$$$$
>  <Molecule>
O=C1c2c(n(Cc3c(F)c(F)c(F)c(F)c3F)c3ccccc3c2=O)-c2cccn21 [Compound 586a]

>  <IC50>
0.05 to 5 mM

$$$$
>  <Molecule>
COc1c2c(nc3ccc(F)cc13)-c1cccn1C2=O [Compound 157b]

>  <IC50>
0.05 to 5 mM

$$$$
>  <Molecule>
O=C1c2c(nc3ccccc3c2OCc2ccccc2Br)-c2cccn21 [Compound 612b]

>  <IC50>
0.05 to 5 mM

$$$$
>  <Molecule>
O=C1c2c(n(Cc3cccc(F)c3)c3c(F)cccc3c2=O)-c2cccn21 [Compound 458a]

>  <IC50>
< 0.05 mM

$$$$
>  <Molecule>
O=C1c2c(n(Cc3ccc(Cl)cc3)c3cc(N4CCNCC4)cc(F)c3c2=O)-c2cccn21 [Compound 647a]

>  <IC50>
0.05 to 5 mM

$$$$
>  <Molecule>
N#Cc1ccc2c(OCc3ccc(F)cc3)c3c(nc2c1)-c1cccn1C3=O [Compound 514b]

>  <IC50>
0.05 to 5 mM

$$$$
>  <Molecule>
O=C1c2c(nc3c(F)c(N4CCNCC4)ccc3c2OCc2ccc(F)cc2)-c2cccn21 [Compound 485b]

>  <IC50>
0.05 to 5 mM

$$$$
>  <Molecule>
O=C1c2c(nc3ccc(C(F)(F)F)cc3c2Oc2ccc(Cl)cc2)-c2cccn21 [Compound 276b]

>  <IC50>
0.05 to 5 mM

$$$$
>  <Molecule>
O=C1c2c(nc3ccccc3c2OCc2ccc(F)c(F)c2)-c2cccn21 [Compound 601b]

>  <IC50>
0.05 to 5 mM

$$$$
>  <Molecule>
O=C1c2c(nc3cc(C(F)(F)F)ccc3c2OCc2ccc(Cl)cc2)-c2cccn21 [Compound 544b]

>  <IC50>
0.05 to 5 mM

$$$$
>  <Molecule>
COc1c2c(nc3cc(N4CCNCC4)c(F)cc13)-c1cccn1C2=O [Compound 361b]

>  <IC50>
0.05 to 5 mM

$$$$
>  <Molecule>
CCOC(=O)/C=C/Cn1c2c(c(=O)c3ccccc31)C(=O)n1cccc1-2 [Compound 661a]

>  <IC50>
< 0.05 mM

$$$$
>  <Molecule>
N#Cc1ccc2c(c1)c(=O)c1c(n2-c2ccc(F)cc2)-c2cccn2C1=O [Compound 199a]

>  <IC50>
< 0.05 mM

$$$$

* * *

Measured IC50 by item
System: human hepatic stellate cells LX-2
Assay: Anti-fibrosis activity test: inhibition of proliferation of human hepatic stellate cells LX-2 (CCK-8)
Assay type: cell-based
Details: Homo sapiens, LX-2, 48 h, LX-2 cells, 48 h, CCK-8

>  <Molecule>
Cc1ccc2nc3c(c(O)c2c1)-c1cccn1C3=O [Compound 777b]

>  <IC50>
0.05 to 5 mM

$$$$
>  <Molecule>
CCCOCCn1c2c(c(=O)c3ccccc31)C(=O)n1cccc1-2 [Compound 671a]

>  <IC50>
0.05 to 5 mM

$$$$
>  <Molecule>
Cc1ccc2c(=O)c3c([nH]c2c1)-c1cccn1C3=O [Compound 714a]

>  <IC50>
0.05 to 5 mM

$$$$
>  <Molecule>
N#Cc1ccccc1-c1ccc(Cn2c3c(c(=O)c4ccccc42)-c2cccn2C3=O)cc1 [Compound 795a]

>  <IC50>
0.05 to 5 mM

$$$$
>  <Molecule>
Cc1cccc2[nH]c3c(c(=O)c12)-c1cccn1C3=O [Compound 776a]

>  <IC50>
0.05 to 5 mM

$$$$
>  <Molecule>
Cc1ccc2[nH]c3c(c(=O)c2c1)-c1cccn1C3=O [Compound 777a]

>  <IC50>
0.05 to 5 mM

$$$$
>  <Molecule>
Cc1ccc(C)c2c(O)c3c(nc12)C(=O)n1cccc1-3 [Compound 783b]

>  <IC50>
0.05 to 5 mM

$$$$
>  <Molecule>
Cc1ccc2c(O)c3c(nc2c1)-c1cccn1C3=O [Compound 714b]

>  <IC50>
0.05 to 5 mM

$$$$
>  <Molecule>
CCOCCCOc1c2c(nc3ccccc13)-c1cccn1C2=O [Compound 672b]

>  <IC50>
0.05 to 5 mM

$$$$
>  <Molecule>
Cc1cccc2c(O)c3c(nc12)-c1cccn1C3=O [Compound 732b]

>  <IC50>
0.05 to 5 mM

$$$$
>  <Molecule>
O=C1c2c(c(=O)c3ccccc3n2CCCCN2CCCCC2)-c2cccn21 [Compound 788a]

>  <IC50>
0.05 to 5 mM

$$$$
>  <Molecule>
O=C1c2c(n(CCCCN3CCNCC3)c3ccccc3c2=O)-c2cccn21 [Compound 670a]

>  <IC50>
0.05 to 5 mM

$$$$
>  <Molecule>
O=C1c2c(c(=O)c3ccccc3n2CCCN2CCCCC2)-c2cccn21 [Compound 786a]

>  <IC50>
0.05 to 5 mM

$$$$
>  <Molecule>
O=C1c2nc3ccccc3c(OCCN3CCNCC3)c2-c2cccn21 [Compound 792b]

>  <IC50>
0.05 to 5 mM

$$$$
>  <Molecule>
O=C1c2nc3ccccc3c(OCCCN3CCOCC3)c2-c2cccn21 [Compound 787b]

>  <IC50>
0.05 to 5 mM

$$$$
>  <Molecule>
Cc1cccc2nc3c(c(O)c12)-c1cccn1C3=O [Compound 776b]

>  <IC50>
0.05 to 5 mM

$$$$
>  <Molecule>
O=C1c2c(nc3ccccc3c2OCCCN2CCCCC2)-c2cccn21 [Compound 666b]

>  <IC50>
0.05 to 5 mM

$$$$
>  <Molecule>
O=C1c2c(c(=O)c3ccccc3n2CCCN2CCOCC2)-c2cccn21 [Compound 787a]

>  <IC50>
0.05 to 5 mM

$$$$
>  <Molecule>
Cc1cc(C)c2c(O)c3c(nc2c1)C(=O)n1cccc1-3 [Compound 782b]

>  <IC50>
0.05 to 5 mM

$$$$
>  <Molecule>
O=C1c2nc3ccccc3c(OCCCN3CCNCC3)c2-c2cccn21 [Compound 793b]

>  <IC50>
0.05 to 5 mM

$$$$
>  <Molecule>
Cc1ccc2nc3c(c(O)c2c1)C(=O)n1cccc1-3 [Compound 696b]

>  <IC50>
0.05 to 5 mM

$$$$
>  <Molecule>
Cc1cc2[nH]c3c(c(=O)c2cc1C)C(=O)n1cccc1-3 [Compound 756a]

>  <IC50>
0.05 to 5 mM

$$$$
>  <Molecule>
O=C1c2c(n(Cc3ccccc3[N+](=O)[O-])c3ccccc3c2=O)-c2cccn21 [Compound 668a]

>  <IC50>
0.05 to 5 mM

$$$$
>  <Molecule>
O=C1c2c(nc3ccccc3c2OCCCCN2CCCCC2)-c2cccn21 [Compound 667b]

>  <IC50>
0.05 to 5 mM

$$$$
>  <Molecule>
O=C1c2c(n(CCCN3CCCCC3)c3ccccc3c2=O)-c2cccn21 [Compound 666a]

>  <IC50>
0.05 to 5 mM

$$$$
>  <Molecule>
Cc1ccc(C)c2c(O)c3c(nc12)-c1cccn1C3=O [Compound 772b]

>  <IC50>
0.05 to 5 mM

$$$$
>  <Molecule>
N#Cc1ccccc1-c1ccc(COc2c3c(nc4ccccc24)C(=O)n2cccc2-3)cc1 [Compound 795b]

>  <IC50>
0.05 to 5 mM

$$$$
>  <Molecule>
O=C1c2c(n(C3CC3)c3ccccc3c2=O)-c2cccn21 [Compound 673a]

>  <IC50>
0.05 to 5 mM

$$$$
>  <Molecule>
O=C1c2nc3ccccc3c(OCCCCN3CCNCC3)c2-c2cccn21 [Compound 794b]

>  <IC50>
0.05 to 5 mM

$$$$
>  <Molecule>
O=C1c2c(nc3ccccc3c2OCCCCN2CCNCC2)-c2cccn21 [Compound 670b]

>  <IC50>
0.05 to 5 mM

$$$$
>  <Molecule>
O=C1c2c(c(=O)c3ccccc3n2CCN2CCCCC2)-c2cccn21 [Compound 784a]

>  <IC50>
0.05 to 5 mM

$$$$
>  <Molecule>
Cc1ccc2c(O)c3c(nc2c1)C(=O)n1cccc1-3 [Compound 778b]

>  <IC50>
0.05 to 5 mM

$$$$
>  <Molecule>
O=C1c2c(n(CCN3CCCCC3)c3ccccc3c2=O)-c2cccn21 [Compound 665a]

>  <IC50>
< 0.05 mM

$$$$
